Here the recorded phytotoxicity rating IPOHE is given for each entry.
# System: ivyleaf morningglory (Ipomoea hederacea, IPOHE)
# METHOD: Pre-emerge test, greenhouse herbicide activity screening
# Type: in vivo
# REPORTED CONDITIONS: pre-emerge, 63 g ai/ha, 14 days after application, rating scale 0-100
The response must contain the number and no unit.

Example results:
COMPOUND	MEASUREMENT TYPE	RECORDED VALUE
COc1c(Cl)cc(F)c(-n2c(=O)cc(C(F)(F)F)n(C)c2=O)c1SC [Compound 17-1]	phytotoxicity rating IPOHE	10
CCOC(=O)C(Cl)Cc1c(OC)c(Cl)cc(F)c1-c1nn(C)c(C(F)(F)F)c1Cl (stereo not drawn) [14-56]	phytotoxicity rating IPOHE	0
COc1c(Cl)cc(F)c(-n2c(=O)cc(C(F)(F)F)n(C)c2=O)c1NN=CCc1ccccc1 [15-15]	phytotoxicity rating IPOHE	100
COc1c(Cl)cc(F)c(-n2c(=O)cc(C(F)(F)F)n(C)c2=O)c1O [Compound 16-6]	phytotoxicity rating IPOHE	50
COc1c(Cl)cc(F)c(-n2c(=O)cc(C(F)(F)F)n(C)c2=O)c1NN=C1CCc2ccccc2C1 [15-18]	phytotoxicity rating IPOHE	90

Task item: Give ivyleaf morningglory (Ipomoea hederacea, IPOHE) phytotoxicity rating IPOHE for COc1c(Cl)cc(F)c(-n2c(=O)cc(C(F)(F)F)n(C)c2=O)c1NNC(=O)Nc1ccc(F)cc1F [15-8]
Reply: 0

Task item: Try this compound next: COc1c(Cl)cc(F)c(-n2c(=O)cc(C(F)(F)F)n(C)c2=O)c1NNC(=O)c1ccc2ccccc2c1 [15-5]
Reply: 100

Task item: Now this one: C=CC=NNc1c(OC)c(Cl)cc(F)c1-n1c(=O)cc(C(F)(F)F)n(C)c1=O [15-10]
Reply: 100

Task item: Try this compound next: Cn1c(C(F)(F)F)cc(=O)n(-c2ccc(Cl)cc2/C=C/c2ccc3ccccc3c2)c1=O [14-59]
Reply: 0

---

# Tested on: johnsongrass (Sorghum halepense, SORHA)
# METHOD: Post-emerge test, greenhouse herbicide activity screening
# Assay type: in vivo
# REPORTED CONDITIONS: 63 g ai/ha; phytotoxicity rating 0-100 (0 no damage, 100 complete death), 14 days after application
MEASUREMENT TYPE: Post-emerge Herbicidal Activity SORHA
Answer with a bare number; do not write a unit.

MOLECULE	MEASURED ON	Post-emerge Herbicidal Activity SORHA
COc1c(Cl)cc(F)c(-n2c(=O)cc(C(F)(F)F)n(C)c2=O)c1N=CN(C)C [Compound 1-31]	johnsongrass (Sorghum halepense, SORHA)	0
Cn1c(C(F)(F)F)cc(=O)n(-c2c(F)cc(Cl)c(OC3CCCC3)c2N)c1=O [Compound 1-21]	johnsongrass (Sorghum halepense, SORHA)	0
COc1c(Cl)cc(F)c(-n2c(=O)cc(C(F)(F)F)n(C)c2=O)c1N1CCCC1 [Compound 1-32]	johnsongrass (Sorghum halepense, SORHA)	0
COc1c(Cl)cc(F)c(-n2c(=O)cc(C(F)(F)F)n(C)c2=O)c1N(C(=O)C1CC1)C(=O)C1CC1 [2-18]	johnsongrass (Sorghum halepense, SORHA)	0
COC(=O)C=CCOc1c(Cl)cc(F)c(-n2c(=O)cc(C(F)(F)F)n(C)c2=O)c1N [Compound 1-20]	johnsongrass (Sorghum halepense, SORHA)	10
CCCc1ccc(C(=O)N(C(=O)c2ccc(CCC)cc2)c2c(OC)c(Cl)cc(F)c2-n2c(=O)cc(C(F)(F)F)n(C)c2=O)cc1 [2-29]	johnsongrass (Sorghum halepense, SORHA)	0
CCOC(=O)CC(=O)Nc1c(OC(=O)CC(=O)OCC)c(Cl)cc(F)c1-n1c(=O)cc(C(F)(F)F)n(C)c1=O [2-16]	johnsongrass (Sorghum halepense, SORHA)	40
COc1c(Cl)cc(F)c(-n2c(=O)cc(C(F)(F)F)n(C)c2=O)c1NC(=O)CC#N [2-14]	johnsongrass (Sorghum halepense, SORHA)	0

Task item: Name the recorded Post-emerge Herbicidal Activity SORHA for COc1c(Cl)cc(F)c(-n2c(=O)c(NC(=O)C(F)(F)F)c(C(F)(F)F)n(C)c2=O)c1NC(=O)C(F)(F)F [2-12] .
Reply: 0

Task item: Try this molecule too: C=C(C)C(=O)Nc1c(OC)c(Cl)cc(F)c1-n1c(=O)cc(C(F)(F)F)n(C)c1=O [2-5]
Reply: 0

Task item: Now the molecule COc1c(Cl)cc(F)c(-n2c(=O)cc(C(F)(F)F)n(C)c2=O)c1N=C(Cl)C(Cl)(Cl)Cl [Compound 1-30]
Reply: 0

Task item: Now give it for COc1c(Cl)cc(F)c(-n2c(=O)cc(C(F)(F)F)n(C)c2=O)c1NC(=O)c1cccc(C)c1 [2-23] too.
Reply: 50

Task item: Also check COc1c(Cl)cc(F)c(-n2c(=O)cc(C(F)(F)F)n(C)c2=O)c1NC(=O)C(C)(C)C [2-3]
Reply: 0

---

# Test system: ivyleaf morningglory (Ipomoea hederacea, IPOHE)
# METHOD: Post-emerge test, greenhouse herbicide activity screening
# Type: in vivo
# REPORTED CONDITIONS: post-emerge, 250 g ai/ha, 14 days after application, rating scale 0-100
# Method: A standard greenhouse herbicide activity screening system was used to evaluate the herbicidal efficacy and crop safety of these test compounds. […] At 14 days after application of the test materials, phytotoxicity ratings were recorded. […]
MEASUREMENT TYPE: phytotoxicity rating IPOHE
// print number alone

Consider the worked cases shown below.
COMPOUND	phytotoxicity rating IPOHE
COc1c(Cl)cc(F)c(-n2c(=O)cc(C(F)(F)F)n(C)c2=O)c1NC(=O)C=Cc1ccccc1	100
COc1c(Cl)cc(F)c(-n2c(=O)cc(C(F)(F)F)n(C)c2=O)c1NC(=O)OCc1cc(C)cc(C)c1	100
CCOC(=O)C(C)Oc1c(Cl)cc(F)c(-n2c(=O)cc(C(F)(F)F)n(C)c2=O)c1NC(=O)c1ccc2ccccc2c1 (stereo not shown)	100

Let's switch to this compound now.
Task item: Fill in: phytotoxicity rating IPOHE of Cn1c(C(F)(F)F)cc(=O)n(-c2c(F)cc(Cl)c(OCC#N)c2NC(=O)CCc2ccccc2)c1=O is ___
Reply: 100

---

# Test system: upland rice (Oryza sp., var. Tebonnet, RICE)
# METHOD: Pre-emerge test, crop safety
# Type: in vivo
# REPORTED CONDITIONS: 250 g ai/ha; pre-emerge; rated 14 days after application; 0 = no damage, 100 = complete death
Quick rule: Pre-emerge crop damage RICE (phytotoxicity rating, scale 0-100) of at least 90 means Yes, below that means No.

Check out these entries, answers already filled in.
MOLECULE	ANSWER LABEL
COc1c(Cl)cc(F)c(-n2c(=O)c(NC(=O)C(F)(F)F)c(C(F)(F)F)n(C)c2=O)c1NC(=O)C(F)(F)F [2-12]	No
COc1c(Cl)cc(F)c(-n2c(=O)cc(C(F)(F)F)n(C)c2=O)c1NC(=O)CC#N [2-14]	No
CCc1ccc(C(=O)Nc2c(OCC#N)c(Cl)cc(F)c2-n2c(=O)cc(C(F)(F)F)n(C)c2=O)cc1 [2-28]	No

Task item: Item COc1c(Cl)cc(F)c(-n2c(=O)cc(C(F)(F)F)n(C)c2=O)c1N1CCCC1 [Compound 1-32] with Pre-emerge crop damage RICE (phytotoxicity rating, scale 0-100) of 90 or above?
Reply: No

Task item: Same for COc1c(Cl)cc(F)c(-n2c(=O)cc(C(F)(F)F)n(N)c2=O)c1N [Compound 1-13]
Reply: Yes

Task item: Try this molecule too: Cn1c(C(F)(F)F)cc(=O)n(-c2c(F)cc(Cl)c(OCc3ccccc3)c2N)c1=O [Compound 1-22]
Reply: No

Task item: Would you kindly repeat that for COc1c(Cl)cc(F)c(-n2c(=O)cc(C(F)(F)F)n(C)c2=O)c1NC(=O)C(C)(C)C [2-3] ?
Reply: No

Task item: Same again, this time with COc1c(Cl)cc(F)c(-n2c(=O)cc(C(F)(F)F)n(C)c2=O)c1NC(=O)C(F)(F)F [2-10]
Reply: No

Task item: Entry CCOC(=O)C(C)Oc1c(Cl)cc(F)c(-n2c(=O)cc(C(F)(F)F)n(C)c2=O)c1N (stereo not shown) [Compound 1-60] please
Reply: Yes

Task item: Note, next up: Cn1c(C(F)(F)F)cc(=O)n(-c2c(F)cc(Cl)c(OCC#N)c2NC(=O)C(F)(F)F)c1=O [2-11]
Reply: No

Task item: Entry to check: Cn1c(C(F)(F)F)cc(=O)n(-c2c(N)cc(OC(F)F)cc2F)c1=O [Compound 1-51]
Reply: No

Task item: Item: COc1c(Cl)cc(F)c(-n2c(=O)cc(C(F)(F)F)n(C)c2=O)c1N(C(=O)C=C(C)C)C(=O)C=C(C)C [2-8]
Reply: No

Task item: What would you report for CC(C)Oc1c(Cl)cc(F)c(-n2c(=O)cc(C(F)(F)F)n(C)c2=O)c1N [Compound 1-63] ?
Reply: Yes
